tested on: RXRa homodimer (NR concentration 180 nM); assay: PBM binding z-score (relative to random genomic background probes); higher = stronger binding; sequences stand for … in GC…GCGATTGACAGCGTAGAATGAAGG
Tag: 1.0 if measured PBM binding z-score is not below 2, 0.0 if it is.

Consider the following illustrative entries.
sequence-content | assigned-class
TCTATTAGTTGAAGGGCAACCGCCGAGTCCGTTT | 0.0
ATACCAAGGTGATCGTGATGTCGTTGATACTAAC | 0.0
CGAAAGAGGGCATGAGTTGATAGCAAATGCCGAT | 0.0
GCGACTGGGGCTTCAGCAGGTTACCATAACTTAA | 0.0
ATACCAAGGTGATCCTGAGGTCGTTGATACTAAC | 1.0

Textbook exercise: given the entry TCTTGTAGATCAAACAGGTTAAGAAAGCCTGAGT , state whether its PBM binding z-score is greater than or equal to 2.
0.0

Check the entry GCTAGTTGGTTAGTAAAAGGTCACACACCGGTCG : does PBM binding z-score equal or exceed 2?
1.0

Hi, just wondering whether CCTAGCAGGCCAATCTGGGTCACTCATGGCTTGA shows PBM binding z-score of 2 or higher.
0.0
